- Tested on: ATP;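 further: ATP exposure 15 min at 22 °C before imaging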
- PROTOCOL: switch fluorescence ratio, 500 uM ATP over buffer (Cy3 cluster intensity, sum of 5 cycles each) (fold (ratio)); higher = stronger signal-on switching upon ATP binding; sequences stand for … in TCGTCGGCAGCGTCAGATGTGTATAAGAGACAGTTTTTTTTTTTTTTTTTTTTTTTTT…TC
- CONDITIONS USED: aptamer strand: ATP DNA aptamer (quencher-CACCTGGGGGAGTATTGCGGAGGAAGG + anchor), 100 nM annealed; ATP concentration: 500 uM
MEASUREMENT KIND: switch fluorescence ratio
Enter the number alone.

**Query** Would you mind telling me what switch fluorescence ratio value was observed for "GTGATTGCGG" ?
**Result** 1.02

**Query** Would you mind telling me what switch fluorescence ratio value was observed for "TAGTTATTTA" ?
**Result** 0.99

**Query** Would you mind telling me what switch fluorescence ratio value was observed for "ATTGCTATGG" ?
**Result** 1.01

**Query** Would you mind telling me what switch fluorescence ratio value was observed for "GTGGGAGG" ?
**Result** 1.02

**Query** Would you mind telling me what switch fluorescence ratio value was observed for "TCGCGGCGCG" ?
**Result** 0.972

**Query** Would you mind telling me what switch fluorescence ratio value was observed for "GGGAAATTGA" ?
**Result** 1.01

**Query** Would you mind telling me what switch fluorescence ratio value was observed for "GGAGATTGGG" ?
**Result** 0.97

**Query** Would you mind telling me what switch fluorescence ratio value was observed for "GGTTGGTTCT" ?
**Result** 1.02

**Query** Would you mind telling me what switch fluorescence ratio value was observed for "AGTTCCGGGA" ?
**Result** 1.02

**Query** Would you mind telling me what switch fluorescence ratio value was observed for "TACAATTTCG" ?
**Result** 1.01

**Query** Would you mind telling me what switch fluorescence ratio value was observed for "CGGCTTTCCC" ?
**Result** 1.01

**Query** Would you mind telling me what switch fluorescence ratio value was observed for "GTATGGGGTT" ?
**Result** 0.964

**Query** Would you mind telling me what switch fluorescence ratio value was observed for "TGCTGCAGTG" ?
**Result** 0.966

**Query** Would you mind telling me what switch fluorescence ratio value was observed for "ATAGTTCCAT" ?
**Result** 0.978

**Query** Would you mind telling me what switch fluorescence ratio value was observed for "GTTTTTGCCA" ?
**Result** 1.01

**Query** Would you mind telling me what switch fluorescence ratio value was observed for "AAACGAGGGT" ?
**Result** 1.02

**Query** Would you mind telling me what switch fluorescence ratio value was observed for "TCGGCATGAT" ?
**Result** 0.998

**Query** Would you mind telling me what switch fluorescence ratio value was observed for "ATTAGGTATG" ?
**Result** 0.969

**Query** Would you mind telling me what switch fluorescence ratio value was observed for "GTATAAATGC" ?
**Result** 0.988

**Query** Would you mind telling me what switch fluorescence ratio value was observed for "CGCGGAACTG" ?
**Result** 1.09

**Query** Would you mind telling me what switch fluorescence ratio value was observed for "TTCCCGGGTG" ?
**Result** 1.53

----------
- Test system: ATP;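 further: ATP exposure 15 min at 22 °C before imaging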
- PROTOCOL: switch fluorescence ratio, 500 uM ATP over buffer (Cy3 cluster intensity, sum of 5 cycles each) (fold (ratio)); higher = stronger signal-on switching upon ATP binding; sequences stand for … in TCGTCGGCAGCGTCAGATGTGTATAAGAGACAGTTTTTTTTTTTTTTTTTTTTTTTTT…TC
- CONDITIONS USED: aptamer strand: ATP DNA aptamer (quencher-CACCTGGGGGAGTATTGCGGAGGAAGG + anchor), 100 nM annealed; ATP concentration: 500 uM
MEASUREMENT KIND: switch fluorescence ratio
Enter the number alone.

**Query** Would you mind telling me what switch fluorescence ratio value was observed for "CTGGGCGGTT" ?
**Result** 0.996

**Query** Would you mind telling me what switch fluorescence ratio value was observed for "AATGGATGTT" ?
**Result** 1.05

**Query** Would you mind telling me what switch fluorescence ratio value was observed for "TTTCTAGTCG" ?
**Result** 0.971

**Query** Would you mind telling me what switch fluorescence ratio value was observed for "ACGTGTTAAT" ?
**Result** 1.01

**Query** Would you mind telling me what switch fluorescence ratio value was observed for "CCGGCTGAGG" ?
**Result** 1.03

**Query** Would you mind telling me what switch fluorescence ratio value was observed for "TGCGAATTGT" ?
**Result** 1.01

**Query** Would you mind telling me what switch fluorescence ratio value was observed for "TCCAGGTTGG" ?
**Result** 1.15

**Query** Would you mind telling me what switch fluorescence ratio value was observed for "GCCTATTTGG" ?
**Result** 0.998

**Query** Would you mind telling me what switch fluorescence ratio value was observed for "AATTTACGAT" ?
**Result** 1.02

**Query** Would you mind telling me what switch fluorescence ratio value was observed for "TAATTTAAGA" ?
**Result** 1.01

**Query** Would you mind telling me what switch fluorescence ratio value was observed for "TTTGATAGTT" ?
**Result** 1.01

**Query** Would you mind telling me what switch fluorescence ratio value was observed for "GTTAAAAATG" ?
**Result** 1.04

**Query** Would you mind telling me what switch fluorescence ratio value was observed for "TGGGGTAAGG" ?
**Result** 1.01

**Query** Would you mind telling me what switch fluorescence ratio value was observed for "GGTGGAGCTA" ?
**Result** 1.03

**Query** Would you mind telling me what switch fluorescence ratio value was observed for "TGGATGTATT" ?
**Result** 1.28

**Query** Would you mind telling me what switch fluorescence ratio value was observed for "GCTGGAAAAT" ?
**Result** 1

**Query** Would you mind telling me what switch fluorescence ratio value was observed for "GCTCGAGATT" ?
**Result** 1.03

**Query** Would you mind telling me what switch fluorescence ratio value was observed for "CGTTTGACTT" ?
**Result** 0.995

**Query** Would you mind telling me what switch fluorescence ratio value was observed for "GTAAGACTAA" ?
**Result** 0.997

**Query** Would you mind telling me what switch fluorescence ratio value was observed for "CGGGTCGGTT" ?
**Result** 1.07

----------
- System: ATP;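 further: ATP exposure 15 min at 22 °C before imaging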
- PROTOCOL: switch fluorescence ratio, 500 uM ATP over buffer (Cy3 cluster intensity, sum of 5 cycles each) (fold (ratio)); higher = stronger signal-on switching upon ATP binding; sequences stand for … in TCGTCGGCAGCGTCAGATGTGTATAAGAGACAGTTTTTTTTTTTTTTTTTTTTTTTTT…TC
- CONDITIONS USED: aptamer strand: ATP DNA aptamer (quencher-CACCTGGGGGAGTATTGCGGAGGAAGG + anchor), 100 nM annealed; ATP concentration: 500 uM
MEASUREMENT KIND: switch fluorescence ratio
Enter the number alone.

**Query** Would you mind telling me what switch fluorescence ratio value was observed for "TTTCGGGCAT" ?
**Result** 1.19

**Query** Would you mind telling me what switch fluorescence ratio value was observed for "GGGGTTTGGT" ?
**Result** 0.984

**Query** Would you mind telling me what switch fluorescence ratio value was observed for "TGCTGCTTTT" ?
**Result** 0.943

**Query** Would you mind telling me what switch fluorescence ratio value was observed for "GAGCAGTGCA" ?
**Result** 1.03

**Query** Would you mind telling me what switch fluorescence ratio value was observed for "GGGGTGGGGC" ?
**Result** 1

**Query** Would you mind telling me what switch fluorescence ratio value was observed for "AGAGATTCGG" ?
**Result** 1.01

**Query** Would you mind telling me what switch fluorescence ratio value was observed for "GCGCTCCGGG" ?
**Result** 1.09

**Query** Would you mind telling me what switch fluorescence ratio value was observed for "ATAGAGCTTG" ?
**Result** 0.997

**Query** Would you mind telling me what switch fluorescence ratio value was observed for "ATTAAGGGCA" ?
**Result** 0.97

**Query** Would you mind telling me what switch fluorescence ratio value was observed for "TTGGGGCAGC" ?
**Result** 0.995

----------
- Test system: ATP;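 further: ATP exposure 15 min at 22 °C before imaging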
- PROTOCOL: switch fluorescence ratio, 500 uM ATP over buffer (Cy3 cluster intensity, sum of 5 cycles each) (fold (ratio)); higher = stronger signal-on switching upon ATP binding; sequences stand for … in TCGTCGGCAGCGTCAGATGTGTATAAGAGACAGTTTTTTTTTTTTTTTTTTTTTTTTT…TC
- CONDITIONS USED: aptamer strand: ATP DNA aptamer (quencher-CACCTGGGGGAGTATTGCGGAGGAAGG + anchor), 100 nM annealed; ATP concentration: 500 uM
Where switch fluorescence ratio equals or exceeds 1, the correct label is yes; where it does not, the label is no.

**Query** Hi, just wondering whether "GTTTTAGAGC" shows switch fluorescence ratio of 1 or higher.
**Result** yes

**Query** Hi, just wondering whether "ATTATTGGGG" shows switch fluorescence ratio of 1 or higher.
**Result** no

**Query** Hi, just wondering whether "TTGGTGTTCT" shows switch fluorescence ratio of 1 or higher.
**Result** yes

**Query** Hi, just wondering whether "AGGGGCAAGA" shows switch fluorescence ratio of 1 or higher.
**Result** yes

**Query** Hi, just wondering whether "TGGGTTACCT" shows switch fluorescence ratio of 1 or higher.
**Result** yes

Values from the supplement of paper PMC10126150
